Quick reference: melting point of the listed items.
Express it in °C; write the number only.

O=C(c1cc(-c2cccnc2)c(N2CCOCC2)s1)c1ccc(Cl)cc1Cl    176

Read the next record carefully.
The recorded melting point for entry Nc1ccc(-c2noc(-c3cnn4c(C(F)F)cc(-c5ccc(C(F)(F)F)c(Cl)c5)nc34)n2)cn1 equals 252

* * *

Examples of compounds with documented melting point follow.

Worked examples, 5 compounds total:
OC(COC1CCCCO1)(Cn1cncn1)c1ccc(Cl)cc1 (stereo not drawn)    70 °C
CS(=O)(=O)c1cn(CC2=NCCN2)c2ccc(N)cc12    215 to 217 °C
ClC(Cl)=CCOc1cc(Cl)c(OCCCOc2ccc(-c3nn[nH]n3)cc2)c(Cl)c1    159 to 161 °C
Oc1ccc(Nc2nc(NCc3ccco3)nc(N3CCOCC3)n2)cc1    163 to 165 °C
C[C@H](C(=O)O)[C@H](O)c1ccccc1    89 to 90 °C

Documented melting point of COC(=O)C=Cc1ccc(Cl)c(C(F)(F)F)c1 : 71 to 73 °C

So, Cc1nc2cnccc2n1-c1ccc(C2=Nc3ccccc3NC(=O)C2)cn1 ? Its melting point was 208 to 210 °C

Sure, the documented melting point for Cc1ccc(S(=O)(=O)NC(=O)C2C(=O)CC(c3ccccc3)CC2=O)cc1 (stereo not drawn) is 164 to 166 °C

Reported melting point ( COCCN1CCc2cc(Nc3ncc(Cl)c(Nc4cc(C(N)=O)ccc4OC)n3)c(OC)cc2CC1 ) = 218 to 225 °C

Lab book: melting point of OC1CCNc2ncc(Br)cc21 (stereo not drawn) noted as 125 to 128 °C

Entry under test: CN(C)CCc1cccc(OCCCCN2C(=O)c3ccccc3C2=O)c1 . Its melting point was 52 to 53 °C

For reference, reported melting point for CC(=NO)c1nn(C)c2cc(Oc3ccc(Cl)cc3)ccc12 stands at 148 to 150 °C

melting point recorded for this compound, O=c1c2ccccc2nc(-c2cc(-c3ccncc3)c(N3CCOCC3)s2)n1-c1ccccc1Cl , is 179 to 180 °C

Entry under test: CCCNC(=O)c1ccc(-c2ccc3nnn(Cc4ccc5ncccc5c4)c3n2)cc1Cl . Its melting point was 128 to 130 °C

Value of melting point reported for the compound N#Cc1ccc(N2CCC(c3ccccc3)CC2)cc1 is 167 to 169 °C

// Cc1cc(N2CCN(C(=O)N3CCN(S(=O)(=O)c4ccc(Br)cc4)CC3)CC2)ncn1 : melting point value = 215 to 216 °C

Entry under test: COc1cc(-c2ccc(C#N)cc2)oc1-c1ccc(C#N)cc1 . Its melting point was 257 to 258 °C

Item: O=C(O)Cn1c(-c2ccc(C(F)(F)F)cc2)nc2cccnc21 | melting point: 240 to 241 °C

melting point recorded for this compound, Cc1ccc(-c2ccc(C(=O)N3Cc4cccn4Cc4ccccc43)cc2)c2ccccc12 , is 160 to 162 °C

Lab note: O=C(O)c1ccc2cccnc2c1O gave melting point of 264 to 266 °C

Entry COC(=O)Cn1sc2ccccc2c1=O , melting point reported as 89 to 91 °C

Entry under test: Cc1cc(=O)n2nc(-c3ccc(F)cc3)c(-c3ccncc3)c2[nH]1 . Its melting point was > 280 °C

Reported melting point ( O=[N+]([O-])c1ccc(OC2(c3ccccc3)CCNCC2)cc1 ) = 137 to 138 °C

Form field melting point, entry N#CC(Cc1ccccn1)(c1ccc(F)cc1)c1ccc([N+](=O)[O-])c(C(F)(F)F)c1 (stereo not drawn) : 118 to 119 °C

melting point reported for this compound Fc1ccc(CNc2nc(OCC(F)(F)F)nc(Oc3cccc(C(F)(F)F)c3)n2)cc1 : 107 to 109 °C
